B1: CPEB3 Ribozyme (parent)
chain: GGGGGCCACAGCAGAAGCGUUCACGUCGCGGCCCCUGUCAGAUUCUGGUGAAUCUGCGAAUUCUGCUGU

- Variants of: B1
- Protocol: self-cleavage, relative activity (ratio to wild type); higher = more cleavage; co-transcriptional
Property Name: self-cleavage
Enter the number alone.

Here is how some variants turned out for self-cleavage.
Supply measured self-cleavage of GGGGGCCACAGCAGAAGAUUUCACGUCGCGGCCCCUGUCAGAUUCUGGUGAAUCUGCGAAUUCUGCUGU [C18A G19U] in your reply.
0.12

Tell me measured self-cleavage for GGGGGCCACAGCAGAAGCGUACACGUCGCGGCCCCUGUCAGAUUCUGGUGAAUCUUCGAAUUCUGCUGU [U21A G56U] please.
0.936

Find the measured self-cleavage of GGGGGCCGCAGCAGAAGCGUUCACGUCGGGGCCCCUGUCAGAUUCUGGUGAAUCUGCGAAUUCUGCUGU [A8G C29G] and report it.
0.496

Assign self-cleavage to the following record: GGGGGCCACAGCAGAAGCGUUCACGUCGCGGCCACUGUCAGAUUCUGGUGAAUCUGCGAAUGCUGCUGU [C34A U62G]
0.434

Tell us which self-cleavage value is on record for AGGGGCCACAGCAGAAGUGUUCACGUCGCGGCCCCUGUCAGAUUCUGGUGAAUCUGCGAAUUCUGCUGU [G1A C18U]
0.0601

// Input: GGGGGCCACAGCAGAAGCGUUCACGUCGCGGCCCCUGUCAGAUUCUGGUGAACCUGCGACUUCUGCUGU [U53C A60C] . Output its self-cleavage only.
0.31

Give the value of self-cleavage reported for the following: GGGGCCCACAGCAGAAGGGUUCACGUCGCGGCCCCUGUCAGAUUCUGGUGAAUCUGCGAAUUCUGCUGU [G5C C18G]
0.12

Given the variant GGGGUCCACAUCAGAAGCGUUCACGUCGCGGCCCCUGUCAGAUUCUGGUGAAUCUGCGAAUUCUGCUGU [G5U G11U] , write its reported self-cleavage.
0.098

Further cases:
Give the reported value of self-cleavage for this record: GGGGGCCACAGCAGAACCGUUCACGUCGCGGCCCCUGUCCGAUUCUGGUGAAUCUGCGAAUUCUGCUGU [G17C A40C]
0.16

Where do these numbers come from? They come from the RNAGym collection of RNA variant scans (doi:10.7554/elife.80360).
